Each entry below carries its recorded pKd.
Molecular target: T1, mouse EGFL7 (mEGFL7-CB-His) (mouse, UniProt Q9QXT5 22-275)
T1 sequence: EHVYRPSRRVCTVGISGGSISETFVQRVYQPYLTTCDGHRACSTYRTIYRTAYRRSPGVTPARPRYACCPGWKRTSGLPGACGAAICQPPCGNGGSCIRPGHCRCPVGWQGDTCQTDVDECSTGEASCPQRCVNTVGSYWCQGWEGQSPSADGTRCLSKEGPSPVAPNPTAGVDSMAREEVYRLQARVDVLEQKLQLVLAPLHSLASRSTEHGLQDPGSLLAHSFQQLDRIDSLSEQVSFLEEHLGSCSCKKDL
Experiment: SPR (Biacore), IgG over immobilized mEGFL7-CB at 37 C;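 also: IgG injected as twofold series from 0.5 to 1000 nM, 3 min association and 3.5 min dissociation, reference flow cell subtracted, kinetics fitted to 1:1 Langmuir model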
pKd: −log10 of the molar value.
valueType: pKd

[[record]]
binder = "18F7.v6E IgG (antibody, V domains shown, IgG; Variant of 18F7.v6) VH: EVQLVESGGGLVQPGGSLRLSCAASGYTFIDYYMNWVRQAPGKGLEWVGDINLDNSGTHYNQKFKGRFTISRDKSKNTAYLQMNSLRAEDTAVYYCAREGVYHDYDDYAMDYWGQGTLVTVSS VL: DIQMTQSPSSLSASVGDRVTITCRTSQSLVHISGITYLHWYQQKPGKAPKLLIYRVSNRFSGVPSRFSGSGSGTDFTLTISSLQPEDFATYYCGQSTHVPLTFGQGTKVEIK"
valuetype = "pKd"
valueobserved = 8.00

[[record]]
binder = "18F7.v3 IgG (antibody, name in Kabat numbering, V domains shown, IgG; Kabat numbering; also called 18F7-KA) VH: EVQLVESGGGLVQPGGSLRLSCAASGYTFIDYYMNWVRQAPGKGLEWVGDINLDNGGTHYNQKFKGRFTISRDKSKNTAYLQMNSLRAEDTAVYYCAREGVYHDYDDYAMDYWGQGTLVTVSS VL: DIQMTQSPSSLSASVGDRVTITCRTSQSLVHINGITYLHWYQQKPGKAPKLLIYRVSNRFSGVPSRFSGSGSGTDFTLTISSLQPEDFATYYCSQSTHVPLTFGQGTKVEIKR"
valuetype = "pKd"
valueobserved = 8.79

[[record]]
binder = "18F7.v9 IgG (antibody, V domains shown, IgG; Kabat numbering) VH: EVQLVESGGGLVQPGGSLRLSCAASGYTFIDKYMNWVRQAPGKGLEWVGDINLDNGGTHYNQKFKGRFTISRDKSKNTAYLQMNSLRAEDTAVYYCAREGVYHDYDDYAMDYWGQGTLVTVSS VL: DIQMTQSPSSLSASVGDRVTITCRTSQSLVHINGITYLHWYQQKPGKAPKLLIYRVSNRFSGVPSRFSGSGSGTDFTLTISSLQPEDFATYYCSQSTHVPLTFGQGTKVEIK"
valuetype = "pKd"
valueobserved = 8.80

[[record]]
binder = "18F7.v10 IgG (antibody, V domains shown, IgG; Kabat numbering) VH: EVQLVESGGGLVQPGGSLRLSCAASGYTFIDYYMNWVRQAPGKGLEWVGDINLDNGGTHYNQKFKGRFTISRDKSKNTAYLQMNSLRAEDTAVYYCAREGVYHPYDDYAMDYWGQGTLVTVSS VL: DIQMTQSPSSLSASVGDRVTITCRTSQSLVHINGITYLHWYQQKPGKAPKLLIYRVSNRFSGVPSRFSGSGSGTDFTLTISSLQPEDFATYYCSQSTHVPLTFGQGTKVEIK"
valuetype = "pKd"
valueobserved = 8.91

[[record]]
binder = "18F7.v1 IgG (18F7-graft) (antibody, V domains shown, Expressed as IgG) VH: EVQLVESGGGLVQPGGSLRLSCAASGYTFIDYYMNWVRQAPGKGLEWVGDINLDNGGTHYNQKFKGRFTISRDNSKNTLYLQMNSLRAEDTAVYYCAREGVYHDYDDYAMDYWGQGTLVTVSS VL: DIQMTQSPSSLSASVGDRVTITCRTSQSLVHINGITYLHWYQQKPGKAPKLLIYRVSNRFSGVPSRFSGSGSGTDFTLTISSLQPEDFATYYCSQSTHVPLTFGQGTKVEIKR"
valuetype = "pKd"
valueobserved = 8.55

